Across several studies, molecules have been characterized by their pIC50 on IRAK4 (Homo sapiens (Human), UniProt Q9NWZ3); a selection follows.
# pIC50 = -log10(concentration in molar units)

Look over these answered cases.
CCCn1cc(-c2cnc(-n3ncc4cc(C#N)cnc43)cc2NC(C)C)cn1 ... 7.54
CC(C)(O)[C@H](F)CNC(=O)c1cnc(Nc2ccc3nccnc3c2)cc1NC1CCCC1F (stereo partly drawn) ... 8.17
CC(C)(O)[C@H](F)CNC(=O)c1cnc(Nc2ccc3ncsc3n2)cc1NC1CC1 ... 9.30
CC(C)Nc1cc(-n2cnc3cc(C#N)cnc32)ncc1-c1cn(C(C)(C)C)nn1 ... 7.02
Cc1cncc(-c2ccc3ncnc(N[C@H]4CC[C@H](N5CCOCC5)CC4)c3c2)c1 ... 7.59

Data request, read-out pIC50, for CC(C)Oc1cc2nc([C@]34CC[C@](C)(C3)OC4)cn2cc1C(=O)Nc1cccn([C@@H]2C[C@@H]2F)c1=O (single isomer, unassigned) 8.03

Data request, read-out pIC50, for CC(C)Oc1cc2nc([C@@]34CC[C@@](C)(C3)OC4)cn2cc1C(=O)Nc1cccn(C2CC2F)c1=O (mixture of isomers) 9.40

Data request, read-out pIC50, for "COCCOCCOc1cc2ncn(-c3ccc(C#N)cn3)c2nc1NC1CCOCC1" 7.86

Data request, read-out pIC50, for CC(C)Oc1nc2nc(C[C@H]3CCOC3)cn2cc1C(=O)Nc1cccn(C2CC2)c1=O (single isomer, unassigned) 9.30

---

Across several studies, compounds have been characterized by their IC50 on IRAK4 (Homo sapiens (Human), UniProt Q9NWZ3); a selection follows.

Look over these answered cases.
Cn1cc(-c2cccc(-c3ncc(-c4cnn(C)c4)c(NCCCCNS(C)(=O)=O)n3)c2)cn1 ... < 100 nM
CC(C)Nc1cc(Nc2ccc3ncsc3c2)ncc1C(=O)NCC[C@@H](C)NC(=O)c1ccccc1 ... 4.4 nM
C[C@H](O)C[C@H]1CCc2sc3ncnc(O[C@H]4CC[C@H](N5CCOCC5)CC4)c3c21 ... < 5000 nM

# next compound below
Lab request: please report IC50 under test system IRAK4 (Homo sapiens (Human), UniProt Q9NWZ3) for "O=C(Nc1nc(CCCCN2CCCCC2)cn1-c1ccccc1)c1cccc(-c2cn[nH]c2)c1" < 50 nM

---

Across several studies, molecules have been characterized by their IC50 on IRAK4 (Homo sapiens (Human), UniProt Q9NWZ3); a selection follows.

Look over these answered cases.
CC[C@H](C)Oc1cc2nc(C34COC(C)(C3)C4)cn2cc1C(=O)Nc1cccn([C@H]2C[C@H]2F)c1=O (single isomer, unassigned) ... 0.1 nM
Cn1cc(-c2cccc(-c3ncc(-c4cnn(C)c4)c(N4CCC[C@H]4CO)n3)c2)cn1 ... 1000 to 5000 nM
CC[C@H](N)c1cccc(-c2ccc3cnn(-c4nccc(C(F)F)n4)c3c2)n1 ... < 100 nM

Data request, read-out IC50, for "c1nc(N[C@H]2CC[C@H](N3CCOCC3)CC2)c2c3c(ccc2n1)CCC3" ≤ 5000 nM

---

Across several studies, compounds have been characterized by their IC50 on IRAK4 (Homo sapiens (Human), UniProt Q9NWZ3); a selection follows.
Report as a plain number; the unit nM is understood.

COc1cc2nn([C@H]3CC[C@H](CN(C)CCC4CCN(C(=O)c5ccc(F)c(C6CCC(=O)NC6=O)c5)CC4)CC3)cc2cc1NC(=O)c1cccc(C(F)(F)F)n1 (stereo partly shown) ... 9.2
CC(C)(O)[C@H](F)CNC(=O)c1cnc(-c2cnn3cc(C#N)cnc23)cc1N[C@@H]1CCN(c2ncc(F)cn2)C1 ... 5
CC(C)Nc1c(C(=O)NCCCNS(C)(=O)=O)cnc2sc(-c3ccc(=O)[nH]c3)cc12 ... 42.8

# next compound below
Data request, read-out IC50, for "COc1nc2c(OC[C@H]3NC(=O)[C@H](F)[C@H]3C3CC3)csc2cc1C(N)=O" 2.8

---

Across several studies, molecules have been characterized by their IC50 on IRAK4 (Homo sapiens (Human), UniProt Q9NWZ3); a selection follows.
Report as a plain number; the unit nM is understood.

Look over these answered cases.
CC(C)Nc1cc(-n2ncc3cc(C#N)cnc32)ncc1-c1cn(CC(O)Cc2ccccc2)nn1 (single isomer, unassigned) ... 21
C[C@H](CF)Oc1cc2nc(C34COC(C)(C3)C4)cn2cc1C(=O)Nc1cccn(C2CC2)c1=O ... 0.6

# next molecule below
Lab request: please report IC50 under test system IRAK4 (Homo sapiens (Human), UniProt Q9NWZ3) for "CC(C)(O)c1cc2nn(C3CCNCC3)cc2cc1NC(=O)c1cccc(C(F)(F)F)n1" 3

---

Across several studies, molecules have been characterized by their pIC50 on IRAK4 (Homo sapiens (Human)); a selection follows.
# pIC50 = -log10(concentration in molar units)

Look over these answered cases.
CC(C)(O)[C@H](F)CNC(=O)c1cnc(Nc2ccn3nccc3c2)cc1NC1CCC(F)C1 (stereo partly drawn) ... 8.21
CC(C)Nc1cc(-c2cnn3cc(C#N)cnc23)ncc1C(=O)N[C@H]1CC[C@H](C(C)(C)O)CC1 ... 8.15

Data request, read-out pIC50, for "CC(C)(O)[C@H](F)CNC(=O)c1cnc(-c2cnn3cc(Cl)cnc23)cc1NCC1(O)COC1" 7.74

Data request, read-out pIC50, for "CC(C)(O)[C@H](F)CNC(=O)c1cnc(Nc2ccc3ncsc3c2)cc1Nc1ccc(C(=O)NCC(F)(F)F)cc1" 7.97

Data request, read-out pIC50, for "c1nc(N[C@H]2CC[C@H](N3CCOCC3)CC2)c2cc(C3COC3)ccc2n1" 7.49

Data request, read-out pIC50, for "CC(C)Nc1c(C(=O)NCc2cnco2)cnc2c1Oc1cc(C#N)ccc1O2" 6.74

Data request, read-out pIC50, for "O=C(NCCC1CCS(=O)(=O)CC1)c1cnc2ccc(-c3cn[nH]c3)cc2c1NC1CC1" 8.06

---

Across several studies, compounds have been characterized by their IC50 on IRAK4 (Homo sapiens (Human), UniProt Q9NWZ3); a selection follows.
Report as a plain number; the unit nM is understood.

Look over these answered cases.
CC(C)Nc1cc(Nc2ccc3ncsc3c2)ncc1C(=O)NCCN1CCOCC1 ... 9
CC(C)Nc1cc(-n2ncc3cc(C#N)cnc32)ncc1-c1cn([C@@H](CO)c2ccccc2)nn1 ... 18
CNc1cncc(-c2ccc3ncnc(N[C@H]4CC[C@H](N5CCOCC5)CC4)c3c2)c1 ... 2

# next compound below
Lab request: please report IC50 under test system IRAK4 (Homo sapiens (Human), UniProt Q9NWZ3) for CC12CC(c3cn4cc(C(=O)Nc5cccn([C@H]6C[C@H]6F)c5=O)c(OC5CCC5)nc4n3)(CO1)C2 (single isomer, unassigned) 0.3

---

Across several studies, compounds have been characterized by their pIC50 on IRAK4 (Homo sapiens (Human), UniProt Q9NWZ3); a selection follows.
# pIC50 = -log10(concentration in molar units)

CC(C)(C)CNc1cc(Nc2ccc3nccnc3c2)ncc1C(=O)NC[C@@H](F)C(C)(C)O ... 7.87
CC(C)Nc1c(C(=O)NCCC2(O)CC(F)(F)C2)cnc2sc(-c3cncs3)cc12 ... 8.27

Data request, read-out pIC50, for "CC(C)Nc1cc(-c2cnc3cc(C#N)cnn23)ncc1-c1cnn(CCC(C)(C)O)c1" 8.52

Data request, read-out pIC50, for "CC(=O)N1CCC[C@@H](c2cc(-c3cnc(-n4ncc5cc(C#N)cnc54)cc3NC(C)C)on2)C1" 9.00

---

Across several studies, compounds have been characterized by their IC50 on IRAK4 (Homo sapiens (Human), UniProt Q9NWZ3); a selection follows.
Report as a plain number; the unit nM is understood.

Look over these answered cases.
CC(C)Oc1cc2nc(C34COC(C)(C3)C4)cn2cc1C(=O)Nc1cccn([C@H]2C[C@@H]2C)c1=O ... 1.1
CC(C)Nc1c(C(=O)NC[C@@H](F)C(C)(C)O)cnc2sc(-c3cccnc3)cc12 ... 5.3
Cc1cc(Nc2ncc(-c3nc4ccccc4s3)c(N[C@@H]3C[C@H](CO)[C@@H](O)[C@H]3O)n2)cc(C)n1 ... 0.32

Lab request: please report IC50 under test system IRAK4 (Homo sapiens (Human), UniProt Q9NWZ3) for "CC(C)Nc1cc(-c2cnn3cc(Cl)cnc23)ncc1C(=O)N[C@H]1CC[C@H](C(=O)NC2CC2)CC1" 5

---

Across several studies, compounds have been characterized by their IC50 on IRAK4 (Homo sapiens (Human), UniProt Q9NWZ3); a selection follows.
Report as a plain number; the unit nM is understood.

CC[C@H](C)Oc1cc2nc(C34COC(CF)(C3)C4)cn2cc1C(=O)Nc1cccn(C2CC2)c1=O (single isomer, unassigned) ... 0.4
CCNc1c(C(=O)NC[C@@H](F)C(C)(C)O)cnc2ccc(-c3cncs3)cc12 ... 81.2
CC(C)(F)CNc1cc(Nc2ccc3ncccc3c2)ncc1C(=O)NC[C@@H](F)C(C)(C)O ... 4.1

Lab request: please report IC50 under test system IRAK4 (Homo sapiens (Human), UniProt Q9NWZ3) for "CN(C)[C@H]1CC[C@H](Nc2ncnc3ccc(-c4cc(F)cc(F)c4)cc23)CC1" 23
